- TARGET OR SYSTEM: Sushi domains (SD1/2) protein of the GABAB1a (GB1a) subunit, recombinant
- Sequence (Q9Z0U4 29-158): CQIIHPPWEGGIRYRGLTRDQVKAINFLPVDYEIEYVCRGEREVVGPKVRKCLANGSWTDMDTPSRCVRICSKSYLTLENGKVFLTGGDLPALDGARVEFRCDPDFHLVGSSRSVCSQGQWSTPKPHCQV
- METHOD: FP competition
Non-standard residues stand in square brackets, D forms with d.
READOUT NAME: Ki (nM)

> print(dat)
                                     binder  units.symbol  readout.value
1               Ac-EEDDSDVWWGGADTDYADGG-NH2            nM            341
2  Ac-TETEFIAWGPTGDED-NH2 [peptide 15 (Ac-…-NH2)]            nM             26
3                     Ac-EDDSDVIWGGADTD-NH2            nM            951

[A] Ac-PWAIVWGPT[dV]SRED-NH2 […vSRED]
[B] Ac-ETEFIAWGPTGD[dE]D-NH2 […eD]
[C] Ac-PWAIVW[dA]PTVSRED-NH2 [PWAIVWaPTVSRED]
[D] Ac-VWGPTVSREDG-NH2
List the 4 entries from lowest Ki to highest Ki value. Write the labels in rank order as requested.
B, A, D, C

Origin of values: patent US20260193293A1
